Biological target: T1, 4H3782-bN
T1 chain: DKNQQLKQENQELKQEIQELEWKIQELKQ
Experiment: two-hybrid library CCNG1;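 note: natural log of median RNA to DNA barcode read ratio; higher means stronger binding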
Class (by interaction score) -- class 1 (below -1), class 2 (-1 to below -0.2), class 3 (-0.2 or more)

>>> assigned_label("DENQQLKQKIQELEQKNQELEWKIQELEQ [4H1845-bN]")
"class 1"
>>> assigned_label("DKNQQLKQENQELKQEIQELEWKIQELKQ [4H3782-bN]")
"class 1"
>>> assigned_label("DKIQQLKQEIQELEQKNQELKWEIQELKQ [4H2618-bN]")
"class 2"
>>> assigned_label("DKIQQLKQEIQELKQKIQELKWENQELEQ [4H2667-bN]")
"class 2"
>>> assigned_label("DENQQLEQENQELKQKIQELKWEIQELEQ [4H1257-bN]")
"class 3"
>>> assigned_label("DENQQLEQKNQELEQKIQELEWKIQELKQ [4H1446-bN]")
"class 3"
>>> assigned_label("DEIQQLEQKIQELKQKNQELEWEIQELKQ [4H370-bN]")
"class 2"
>>> assigned_label("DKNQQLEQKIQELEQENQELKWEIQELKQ [4H3354-bN]")
"class 1"
>>> assigned_label("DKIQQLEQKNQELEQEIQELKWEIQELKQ [4H2442-bN]")
"class 3"
